Assay Procedure: AUC (0 to 48 hrs) in ICR mouse at 10 mg/kg, iv
Type: ADME, organism-based
Set-up: time < 48 hr, dose 10 mg/kg, route intravenous
Condition Set: plasma
Endpoint: AUC(0-t) at 48 h (ng·h/mL)

>  <Compound Smiles>
CC(=O)O[C@H]1C(=O)[C@@]2(C)[C@H]([C@H](OC(=O)c3ccccc3)[C@]3(O)C[C@H](OC(=O)[C@H](O)[C@@H](NC(=O)c4ccccc4)c4ccccc4)C(C)=C1C3(C)C)[C@]1(OC(C)=O)CO[C@@H]1C[C@@H]2O

>  <Endpoint>
AUC(0-t) at 48 h

>  <Result Unit>
ng·h/mL

>  <Recorded Number>
35300

$$$$
